Can you tell me log10(IC50) for the items I'm about to list?
A difference of one corresponds to tenfold IC50; all values are log10 with IC50 in µM.

[ask] Entry CS(=O)(=O)O.Cn1c(=N)n2nc(-c3ccco3)nc2c2ccccc21 , system Adenosine A2 receptor (Rattus norvegicus, UniProt P29276+P30543): what log10(IC50) was measured?
[reply] 0.46

[ask] Quick check: log10(IC50) on Adenosine A2 receptor (Rattus norvegicus, UniProt P29276+P30543), item Nc1nc2ccc(OCc3ccccc3)cc2c2nc(-c3ccco3)nn12 ?
[reply] 0.11

[ask] Form entry - test system: Adenosine A2 receptor (Rattus norvegicus, UniProt P29276+P30543); read-out: log10(IC50); compound: Nc1nc2ccc(O)cc2c2nc(-c3ccco3)nn12
[reply] -2.26

[ask] Which log10(IC50) is reported with Adenosine A2 receptor (Rattus norvegicus, UniProt P29276+P30543) for this entry: CS(=O)(=O)O.Nc1nc2ccc(Cl)cc2c2nc(-c3ccc[nH]3)nn12 ?
[reply] 0.08

[ask] Query the reported log10(IC50) for Adenosine A2 receptor (Rattus norvegicus, UniProt P29276+P30543); item: Nc1nc2ccc(Cl)cc2c2nc(C3CCCO3)nn12 (stereo not drawn)
[reply] 0.20

[ask] Give recorded log10(IC50) with Adenosine A2 receptor (Rattus norvegicus, UniProt P29276+P30543) for the following compound: CC(C)Nc1nc2ccc(Cl)cc2c2nc(-c3ccco3)nn12
[reply] -0.75

[ask] Request body: readout log10(IC50), system Adenosine A2 receptor (Rattus norvegicus, UniProt P29276+P30543), query OCCNc1nc2ccc(Cl)cc2c2nc(-c3ccco3)nn12 . Return the value.
[reply] -1.25

[ask] Form field - read-out: log10(IC50); system: Adenosine A2 receptor (Rattus norvegicus, UniProt P29276+P30543); submitted item: CS(=O)(=O)O.Nc1nc2ccc(Cl)cc2c2nc(-c3ccoc3)nn12
[reply] -0.84

[ask] API: value(readout=log10(IC50), system=Adenosine A2 receptor (Rattus norvegicus, UniProt P29276+P30543)) for record CS(=O)(=O)O.Nc1nc2ccc(Cl)cc2c2nc(-c3ccco3)nn12
[reply] -2.48

[ask] log10(IC50) of Nc1nc2ccc(Cl)cc2c2nc(-c3ccc(Br)o3)nn12 on Adenosine A2 receptor (Rattus norvegicus, UniProt P29276+P30543)?
[reply] -0.27

[ask] Value wanted: log10(IC50) (Adenosine A2 receptor (Rattus norvegicus, UniProt P29276+P30543)) of entry CNc1nc2ccc(Cl)cc2c2nc(-c3ccco3)nn12
[reply] -1.21

[ask] For the record Nc1nc2ccccc2c2nc(-c3ccco3)nn12 , what value of log10(IC50) is listed for Adenosine A2 receptor (Rattus norvegicus, UniProt P29276+P30543)?
[reply] -1.57

[ask] Field: log10(IC50) (Adenosine A2 receptor (Rattus norvegicus, UniProt P29276+P30543)). Entry: COc1ccc2nc(N)n3nc(-c4ccco4)nc3c2c1
[reply] -1.72

[ask] Test system Adenosine A2 receptor (Rattus norvegicus, UniProt P29276+P30543); read-out log10(IC50); what value for CS(=O)(=O)O.Nc1nc2ccc(Cl)cc2c2nc(-c3cccs3)nn12 ?
[reply] -0.94

[ask] For the record CCC(C)Nc1nc2ccc(Cl)cc2c2nc(-c3ccco3)nn12.CS(=O)(=O)O (stereo not drawn) , what value of log10(IC50) is listed for Adenosine A2 receptor (Rattus norvegicus, UniProt P29276+P30543)?
[reply] -0.80
